Where do these numbers come from? They come from paper PMC6803848.

Kindly state inhibition at 2 µg/mL for each of the entries shown.
- Tested on: HT29
- methodNotes: MTT antiproliferative assay, HT29 cells
- Assay type: cell-based
- experimentalConditions: Homo sapiens, HT-29; HT29, 2 μg/mL, 48 h, MTT; read-out: Antiproliferative activity (growth inhibition, %)

Reference set, count: 2
INSERT INTO results (compound, reportedproperty, assayresult) VALUES
  ('CC1(C(=O)N2CCOCC2)CCC2(C)CCC3(C)C(=CC(=O)C4C5(C)CCC(OC(=O)Nc6ccc(Cl)cc6)C(C)(C)C5CCC43C)C2C1 (stereo not drawn)', 'inhibition at 2 µg/mL', '16.3%'),
  ('COc1ccc(NC(=O)O[C@H]2CC[C@@]3(C)C(CC[C@]4(C)[C@@H]3C(=O)C=C3[C@@H]5C[C@@](C)(C(=O)O)CC[C@]5(C)CC[C@]34C)C2(C)C)cc1 (stereo partly drawn)', 'inhibition at 2 µg/mL', '12.8%');

Entry CC1(C)C2CC[C@]3(C)[C@H](C(=O)C=C4[C@@H]5C[C@@](C)(C(=O)O)CC[C@]5(C)CC[C@]43C)[C@@]2(C)CC[C@@H]1OC(=O)Nc1ccc(Cl)c(Cl)c1 (stereo partly drawn) — recorded inhibition at 2 µg/mL = 11.3%
